- Test system: HT29 colon
- measurement.protocol: NCI tumour cell line growth inhibition, 48 h; in the data active = GI50 below about 0.43 µM; inactive = the rest
Outcome codes: active, inactive

compound	target.or.test.system	group
COc1cc(-n2cncc2-c2ccc3ccccc3c2)cc(OC)c1OC	HT29 colon	active
CC[C@]12C=CCN3CC[C@]4(C(=C(C(=O)OC)C1)Nc1cc(OC)c(OC(C)=O)cc14)[C@@H]32	HT29 colon	inactive
CC(C)=CC(=O)OCC(=O)O[C@@H]1C[C@]2(C(C)C)O[C@@]1(C)[C@@H]1CC[C@@H](C)[C@H]1[C@@H]2OC(=O)/C=C/c1ccccc1	HT29 colon	inactive
O=C(Cc1csc2nc(-c3ccc(Br)cc3)cn12)N/N=C/c1cc(Br)ccc1O	HT29 colon	inactive
COc1ccc2c(c1)N(CCO)C1=C(C(=O)OC1)C2c1cc(OC)c(OC)c(OC)c1 (stereo not given)	HT29 colon	active
N#CC(C#N)=C/C=C(\Sc1ccc(F)c(Cl)c1)c1ccc(Cl)cc1	HT29 colon	inactive
CCOC(=O)c1cc(NC(=O)c2cc(NC(=O)c3cc(NC(=O)c4c(-c5ccccc5)noc4C)cn3C)cn2C)cn1C	HT29 colon	inactive
CC1(C)CCC(S(=O)(=O)c2ccc3c(c2)/C(=N\O)c2cc(S(=O)(=O)N4CCN(c5ccc(F)cc5O)CC4)ccc2-3)CC1	HT29 colon	active
COC(=O)c1c2c(c[n+]([O-])c1C)C(=O)C=C(NCc1ccccc1)C2=O	HT29 colon	active
CC#Cc1nc2ccccc2c(=O)[nH]1	HT29 colon	inactive
COc1cc(CC(C)C(C)Cc2ccc(O)c(OC)c2)ccc1O (stereo not given)	HT29 colon	inactive
COc1cc(/C=C/C(=O)c2cc(OC)c(OC)c(OC)c2)ccc1Oc1nc2c(c(=O)n(C)c(=O)n2C)n1C	HT29 colon	inactive
C=C(C)[C@@H]1CC[C@]2(CNCCO)CC[C@]3(C)[C@H](CC[C@@H]4[C@@]5(C)CCC(N)[C@@](C)(CO)[C@@H]5CC[C@]43C)[C@@H]12 (stereo not given in full)	HT29 colon	inactive
CCOC(=O)c1ccc2c(c1)c1c(C)c3ccncc3c(C)c1n2C	HT29 colon	active
Nc1nc2c(c3cnccc13)C(c1cccc(Br)c1)Cc1cnccc1-2 (stereo not given)	HT29 colon	active

====

- Test system: IGROV1 ovarian
- measurement.protocol: NCI tumour cell line growth inhibition, 48 h
property.label: TGI

compound	target.or.test.system	result
O=C(O)c1ccccc1SCc1cccc2c(=O)c3ccc(Cl)cc3oc12	IGROV1 ovarian	> 50 µM
COc1c(OCCCN2CCOCC2)ccc2c3n(c(=NC(=O)c4cnc(N)nc4)nc12)CCN3	IGROV1 ovarian	40.3 nM [middle of 4 runs]
O=C1/C(=C/c2ccc3c(c2)CCC3)Cc2cc3c(cc21)CCC3	IGROV1 ovarian	> 100 µM
CC[C@]12C=CCN3CC[C@]4(C(=C(C(=O)OC)C1)Nc1cc(OC)c(OC(C)=O)cc14)[C@@H]32	IGROV1 ovarian	20.4 µM
COc1ccc(C2=NN(C(=O)c3ccc(Cl)cc3)C(O)(c3cc(F)c(Cl)cc3Cl)C2)cc1OC (stereo not given)	IGROV1 ovarian	> 100 µM

====

- Test system: DU-145 prostate
- measurement.protocol: NCI tumour cell line growth inhibition, 48 h

structure.smiles	TGI
COC(=O)NC(Nc1ccc(Cl)cc1Cl)(C(F)(F)F)C(F)(F)F	> 100 µM
COc1cc2c3c(n(CCCN=[N+]=[N-])c(=O)c2cc1OC)-c1ccc(C#N)cc1C3=O	> 100 µM
Cc1c(NC(=O)c2cc(C(N)=O)nc3cc(F)ccc23)c(C(F)(F)F)nn1Cc1ccc(C#N)cc1	> 56.4 µM
CC(C)=CC(=O)OCC(=O)O[C@@H]1C[C@]2(C(C)C)O[C@@]1(C)[C@@H]1CC[C@@H](C)[C@H]1[C@@H]2OC(=O)/C=C/c1ccccc1	> 100 µM

====

- Tested on: A549 NSCLC
- measurement.protocol: NCI tumour cell line growth inhibition, 48 h; in the data active = GI50 below about 0.43 µM; inactive = the rest
Outcome codes: 1 (yes) for active, 0 (no) for inactive

compound	target.or.test.system	group
COc1cccc2c1C(CO)N1C(C#N)C3CC(C(=O)O)C(C1C2)N3C (centres undefined)	A549 NSCLC	0 (no)
CC(=O)OCC1OC(OC2=C(CC=C(C)C)C(=O)c3ccccc3C2=O)C(OC(C)=O)C(OC(C)=O)C1OC(C)=O (centres undefined)	A549 NSCLC	0 (no)
CC#Cc1nc2ccccc2c(=O)[nH]1	A549 NSCLC	0 (no)
O=C(OC(CNc1c(C(=O)c2ccccc2)c(=O)n(Cc2ccccc2)c(=O)n1Cc1ccccc1)CN1CCOCC1)c1ccccc1 (centres undefined)	A549 NSCLC	0 (no)
CC(C)(C)c1[nH]nc2c1C(c1cc3ccccc3[nH]c1=O)Nc1cc(C(=O)Nc3ccc(Cl)cc3)ccc1N2 (centres undefined)	A549 NSCLC	0 (no)
CC(C)(O)c1coc(S(=O)(=O)/N=C(\O)Nc2c3c(cc4c2CCC4)CCC3)c1	A549 NSCLC	0 (no)
N#CC(C#N)=C/C=C(\Sc1ccc(F)c(Cl)c1)c1ccc(Cl)cc1	A549 NSCLC	0 (no)
COc1cc(-n2cncc2-c2ccc3ccccc3c2)cc(OC)c1OC	A549 NSCLC	1 (yes)
CCN1CCN(c2cc(C)nc(N(CCCNc3ccnc4cc(Cl)ccc34)Cc3cccs3)n2)CC1	A549 NSCLC	0 (no)

====

- System: SK-MEL-28 melanoma
- measurement.protocol: NCI tumour cell line growth inhibition, 48 h
property.label: TGI

compound	result
C=C1C(=O)OC2C1CC[C@H](C)C1(O)C(O)CC(=O)[C@@]21C (stereo partly drawn)	27 µM
C=C(C)/C=C/C(O)[C@](C)(O)[C@H]1[C@H](O)C[C@@]2(C)[C@@H]3CCc4c(cc(OC5OC(CO)C(O)C(O)C5O)c(O)c4C)C3(C)C(=O)C[C@]12C (stereo partly drawn)	> 100 µM
c1ccc(N=C2SC(c3ccccc3)(c3ccccc3)c3ccccc32)cc1	> 100 µM
Cc1sccc1C(=S)Nc1ccc(Cl)c(/C=N/OC(C)(C)C)c1	71 µM
OC(Cc1cccnc1)(c1ccccc1)c1ccccc1	> 100 µM
CN1CC[C@]2(C)c3c(O)cccc3CC3CCCC1C32C (stereo partly drawn)	> 100 µM
O=C1/C(=C\c2ccc(Br)cc2)CN(C(=O)c2ccccc2F)C/C1=C\c1ccc(Br)cc1	5.65 µM
O=C1CNc2cc(N3CCN(c4ccccc4)CC3)ccc2N1	> 100 µM
CCN1CCN(c2cc(C)nc(N(CCCNc3ccnc4cc(Cl)ccc34)Cc3cccs3)n2)CC1	3.39 µM
COc1ccc(-c2cc(=O)c3c(O)c(OC)c(O)c(OC)c3o2)cc1OC	> 100 µM
Cn1c(=O)c2ccccc2c2nc3ccccc3nc21	> 100 µM
COc1ccc2c(c1)CC1Cc3cc(OC)c(OC)cc3CN1CC2 (stereo not drawn)	> 100 µM
COc1ccc(Nc2nc3cc(C(F)(F)F)ccc3nc2C(=O)O)cc1OC	> 100 µM
C[N+]1(C)C/C(=C/c2ccc(F)cc2)C(=O)/C(=C\c2ccc(F)cc2)C1	40.8 µM
O=C(Cc1csc2nc(-c3ccc(Br)cc3)cn12)N/N=C/c1cc(Br)ccc1O	> 100 µM
C=C(Br)CN(C)CC(=C)Br	> 100 µM
CCOC(=O)c1ccc2c(c1)c1c(C)c3ccncc3c(C)c1n2C	1.9 µM
CON(C)C(=O)CCCO	> 100 µM
CN(O)C(=O)c1ccccc1	> 100 µM
COc1ccc(C23c4ccc(OC)cc4CC2(c2ccc([N+](=O)[O-])cc2)Cc2cc(OC)ccc23)cc1 (stereo not drawn)	> 55.1 µM
COc1ccc(C2=C(c3cn(C)c4ccccc34)C(=O)NC2=O)cc1	> 25 µM
CN(CCNC(=O)c1[nH]nc2c1Cc1ccccc1-2)CCNC(=O)c1[nH]nc2c1Cc1ccccc1-2	35.2 µM
O=C1NC(=NCCc2cccs2)S/C1=C\c1ccc2ncccc2c1	> 25 µM

====

- System: SNB-75 CNS
- measurement.protocol: NCI tumour cell line growth inhibition, 48 h; in the data active means GI50 below about 0.43 µM; inactive means the rest
Outcome codes: true (1) (active), false (0) (inactive)

compound	group
CC1(C)CCC(S(=O)(=O)c2ccc3c(c2)/C(=N\O)c2cc(S(=O)(=O)N4CCN(c5ccc(F)cc5O)CC4)ccc2-3)CC1	true (1)
Nc1nc2c(c3cnccc13)C(c1cccc(Br)c1)Cc1cnccc1-2 (centres undefined)	true (1)
COc1ccc2c(CCC(c3ccccc3)c3ccccc3)c3[n+](cc2c1OC)CCc1cc2c(cc1-3)OCO2	true (1)
COc1cc(CC(C)C(C)Cc2ccc(O)c(OC)c2)ccc1O (centres undefined)	false (0)
O=C1/C(=C\c2ccc(Br)cc2)CN(C(=O)c2ccccc2F)C/C1=C\c1ccc(Br)cc1	false (0)
CC(C)(O)c1coc(S(=O)(=O)/N=C(\O)Nc2c3c(cc4c2CCC4)CCC3)c1	false (0)
Cc1cc(C)c(CNC(=O)c2cc(-c3ccc(CN4CCOCC4)cc3)cc3c2cnn3C2CCCC2)c(=O)[nH]1	false (0)
O=C(Cc1csc2nc(-c3ccc(Br)cc3)cn12)N/N=C/c1cc(Br)ccc1O	false (0)
CC(C)=CC(=O)OCC(=O)O[C@@H]1C[C@]2(C(C)C)O[C@@]1(C)[C@@H]1CC[C@@H](C)[C@H]1[C@@H]2OC(=O)/C=C/c1ccccc1	false (0)
